System: Wolbachia pipientis
PROTOCOL DETAILS: Anti-Wolbachia Cell-Based Screen
Assay type: functional
Parameters: scale not given: in the data most compounds retested in dose-response had high values
CONDITION CONTEXT: 5 µM
Hit rate of the full screen: of about 48,000 compounds, about 13,000 (27%) showed an effect of 50% or more. Some of the results follow.
MEASUREMENT NAME: Percent Effect (%)
# unit: % | format: bare number

Req: What value of Percent Effect has been reported for the following compound? Cc1cc(C(=O)N2CCNC(=O)C2)c(C)n1Cc1ccccn1
Resp: -1.908

Req: What value of Percent Effect has been reported for the following compound? Cc1ccc(CNc2ccc(C(=O)N3CCNC(=O)C3)cn2)cc1
Resp: 3.114

Req: What value of Percent Effect has been reported for the following compound? O=C(c1cnc(COc2ccccc2)nc1O)N1CCOCC1
Resp: 1.405

---

Listing of entries alongside the reported Percent Effect.
Tested on: Wolbachia pipientis
PROTOCOL DETAILS: Anti-Wolbachia Cell-Based Screen
Assay type: functional
Design: scale not given: in the data most compounds retested in dose-response had high values
CONDITION CONTEXT: 5 µM
Screen size: about 48,000 compounds; about 13,000 (27%) showed an effect of 50% or more. This is one part of the list.
# unit: % | format: bare number

// worked examples, Percent Effect included
CO[C@H]1CCN(c2nnc(C)s2)C[C@@H]1Cc1cccc(C)c1.O=C(O)C(F)(F)F    71.03
Br.O=C(O)c1csc(NCCc2ccccc2)n1    93.16
CCC[C@@H]1CN(C(=O)c2c(F)ccc(C)c2Cl)C[C@H]1C(=O)O    10.65
Cc1csc(C2CCCCN2C(=O)c2cc(C(C)C)[nH]n2)n1 (configuration not stated)    109.6
O=C(NCCCn1ccnc1)Nc1ccn(CCc2ccccn2)n1    -2.122

Req: What value of Percent Effect has been reported for the following molecule? Cc1cc(C)nc(N2CCN(C(=O)c3ccc(C4CCCO4)s3)CC2)n1 (configuration not stated)
Resp: 6.831

Req: What value of Percent Effect has been reported for the following molecule? CCNc1ncc(C2CC(=O)Nc3c2cnn3Cc2ccncc2)cn1 (configuration not stated)
Resp: 0.3044

Req: What value of Percent Effect has been reported for the following molecule? O=C(NCc1nnc2ccccn12)N1CCOC(c2ccsc2)C1 (configuration not stated)
Resp: -11.65

---

System: Wolbachia pipientis
PROTOCOL DETAILS: Anti-Wolbachia Cell-Based Screen
Format: functional
Design: scale not given: in the data most compounds retested in dose-response had high values
CONDITION CONTEXT: 5 µM
The campaign covered roughly 48,000 compounds. About 13,000 (27%) showed an effect of 50% or more. This is one part of the list.
Listing of entries alongside the reported Percent Effect.
# unit: % | format: bare number

// worked examples, Percent Effect included
CCc1nc(CN(C)C2CCCN(c3cccnn3)C2)no1 (stereo unspecified)    81.94
Cl.O=C(c1ccoc1)N1CCC(NCc2ccccc2Cl)CC1    -26.85
CN(Cc1nc(C2CC2)no1)C1CCCN(c2cccnn2)C1 (stereo unspecified)    -5.639
Cc1ccc(N2CCCC(N(C)Cc3noc(C4CC4)n3)C2)nn1 (stereo unspecified)    -34.27

Req: Checklist item: Percent Effect tested on Wolbachia pipientis, entry Cc1ccccc1CN(Cc1ccc(S(C)(=O)=O)cc1)CC(C)C , value?
Resp: 34.24

Req: Checklist item: Percent Effect tested on Wolbachia pipientis, entry O=c1cc(CN(CCO)C2CC2)nc2ccc(Cl)cn12 , value?
Resp: -6.925

---

System: Wolbachia pipientis
PROTOCOL DETAILS: Anti-Wolbachia Cell-Based Screen
Type: functional
Set-up: scale not given: in the data most compounds retested in dose-response had high values
CONDITION CONTEXT: 5 µM
Screen size: about 48,000 compounds; about 13,000 (27%) showed an effect of 50% or more. This is one part of the list.
MEASUREMENT NAME: Percent Effect
Value and unit, in that order.

// worked examples, Percent Effect included
Cc1cc(C)c(C#N)c(NCCSc2nncn2C)n1    98.82%
COc1ccccc1N1CCN(CC[C@H](O)c2ccccc2)CC1=O    -5.081%

Attention now turns to another entry.
Req: What value of Percent Effect has been reported for the following compound? CC[C@@H]1N(Cc2nccs2)CCC[C@]12CCC(=O)N2CCOC.O=C(O)C(F)(F)F
Resp: 100.4%

---

Test system: Wolbachia pipientis
PROTOCOL DETAILS: Anti-Wolbachia Cell-Based Screen
Format: functional
Design: scale not given: in the data most compounds retested in dose-response had high values
CONDITION CONTEXT: 5 µM
The campaign covered roughly 48,000 compounds. About 13,000 (27%) showed an effect of 50% or more. The list shows a part of the results.
MEASUREMENT NAME: Percent Effect (%)
# unit: % | format: bare number

COCCOc1ccnc(-c2noc([C@@H]3CCCN3C)n2)c1    -6.49
CNC(=O)[C@@]12CCC3(CCN(S(C)(=O)=O)CC3)[C@@H]1CN(C(C)=O)C2    110.1
NC(=O)c1cncc(Oc2cccc(CN3CCCC3)c2Cl)n1    9.192
COCCOc1ccnc(-c2noc([C@@H]3CCCN3CC3CC3)n2)c1    -13.12
CN1CCC(c2cccc(Cc3ccc(F)cc3)n2)CC1    -5.274
O=C(O)C(F)(F)F.c1ccc(CN2Cc3nccn3CC(Cn3cccn3)C2)nc1 (centres undefined)    97.11

Req: Checklist item: Percent Effect tested on Wolbachia pipientis, entry O=C(O)C(F)(F)F.c1ccc(CN2Cc3nccn3CC(Cn3cncn3)C2)nc1 (centres undefined) , value?
Resp: 98.39

Req: Checklist item: Percent Effect tested on Wolbachia pipientis, entry Cc1nc(N2CCCC(OCc3ccccn3)C2)c2c(C)noc2n1 (centres undefined) , value?
Resp: 99.09

Req: Checklist item: Percent Effect tested on Wolbachia pipientis, entry Cn1cc(C2CCCN2CC(=O)N(CCC#N)Cc2ccco2)cn1 (centres undefined) , value?
Resp: 0.296

Req: Checklist item: Percent Effect tested on Wolbachia pipientis, entry CCS(=O)(=O)N1CCC2(CC1)CC[C@@]1(C(=O)N(C)C)CN(C(C)=O)C[C@@H]21 , value?
Resp: -13.65

Req: Checklist item: Percent Effect tested on Wolbachia pipientis, entry COCCN1CCCC1c1ccnc(-c2ccccc2)n1 (centres undefined) , value?
Resp: 120.2

Req: Checklist item: Percent Effect tested on Wolbachia pipientis, entry Nc1nc2c(c(N3CCCC(OCc4ccccn4)C3)n1)CCNCC2 (centres undefined) , value?
Resp: 94.61

Req: Checklist item: Percent Effect tested on Wolbachia pipientis, entry Cc1nnc(CCNC(=O)C(c2ccc(F)cc2)N(C)C)[nH]1 (centres undefined) , value?
Resp: 15.69

Req: Checklist item: Percent Effect tested on Wolbachia pipientis, entry COc1cccc(-c2ncc3c(n2)N(C)CCN(CCN(C)C)C3=O)c1 , value?
Resp: 82.33

---

Tested on: Wolbachia pipientis
PROTOCOL DETAILS: Anti-Wolbachia Cell-Based Screen
Assay type: functional
Parameters: scale not given: in the data most compounds retested in dose-response had high values
CONDITION CONTEXT: 5 µM
Out of some 48,000 compounds screened, about 13,000 (27%) showed an effect of 50% or more. Some of the results follow.
MEASUREMENT NAME: Percent Effect (%)
# unit: % | format: bare number

Req: What value of Percent Effect has been reported for the following molecule? O=C(c1cnc2c(cnn2C2CCCC2)c1)N1CCN(CCO)CC1
Resp: 107.7

Req: What value of Percent Effect has been reported for the following molecule? O=C1N(CC2CC2)C2(CCSCC2)NC12CCCC2
Resp: -1.128

Req: What value of Percent Effect has been reported for the following molecule? Cc1ccccc1OCC(=O)NCC(c1ccc(N(C)C)cc1)N(C)C (centres undefined)
Resp: 129.5

Req: What value of Percent Effect has been reported for the following molecule? c1cc(CN2CCc3nc(N4CCOCC4)nc(NC4CC4)c3C2)co1
Resp: 2.456

---

Test system: Wolbachia pipientis
PROTOCOL DETAILS: Anti-Wolbachia Cell-Based Screen
Assay type: functional
Parameters: scale not given: in the data most compounds retested in dose-response had high values
CONDITION CONTEXT: 5 µM
Hit rate of the full screen: of about 48,000 compounds, about 13,000 (27%) showed an effect of 50% or more. This is one part of the list.
Listing of entries alongside the reported Percent Effect.
Value and unit, in that order.

CC(C)c1cc(C(=O)N(c2ccc(F)cn2)C2CCOCC2)nn1C    -15.95%
O=C(O)C(F)(F)F.O=S(=O)(C1CC1)N1CCO[C@H]2[C@H](OCCN3CCCC3)CC[C@@H]21    -18.3%
COCCCN1C(=O)CC[C@H]2CN(Cc3ncc[nH]3)CC[C@H]21    -5.769%

Req: What value of Percent Effect has been reported for the following compound? O=c1n(CCNCc2ccc(-c3ccccc3)cc2)nc2ccccn12
Resp: 92.23%

Req: What value of Percent Effect has been reported for the following compound? CCc1nc(CCNC(=O)NC2CCC(=O)N(C)C2)sc1C (configuration not stated)
Resp: -4.769%

Req: What value of Percent Effect has been reported for the following compound? CCS(=O)(=O)N1CC[C@@H]2[C@H]1CCC(=O)N2CCOC
Resp: 101.4%

Req: What value of Percent Effect has been reported for the following compound? O=C(c1ccno1)N1CCOC[C@H](Oc2ccc(C(F)(F)F)cc2)C1
Resp: -17.29%
